Tested on: HARA
Assay: relative viability (nuclei count vs DMSO), 5 days (fraction); higher = more cells survive
Conditions: first compound 0.005 µM
Hi! Just check whether relative viability is below 0.7. Below gives satisfied, equal or above gives not satisfied.

| Compound | Assayed Target | Discrete Label |
| --- | --- | --- |
| Nc1ccn([C@@H]2O[C@H](CO)[C@@H](O)[C@@H]2O)c(=O)n1 [Cytarabine] + Nc1nc2[nH]cc(CCc3ccc(C(=O)N[C@@H](CCC(=O)O)C(=O)O)cc3)c2c(=O)[nH]1 [Pemetrexed] (partner 0.2 µM) | HARA | satisfied |
| COc1cc2nccc(Oc3ccc(NC(=O)Nc4cc(C)on4)c(Cl)c3)c2cc1OC [Tivozanib] + Nc1ncn([C@H]2C[C@H](O)[C@@H](CO)O2)c(=O)n1 [Decitabine] (partner 2 µM) | HARA | satisfied |
| Nc1ccn([C@@H]2O[C@H](CO)[C@@H](O)[C@@H]2O)c(=O)n1 [Cytarabine] + Nc1ncn([C@H]2C[C@H](O)[C@@H](CO)O2)c(=O)n1 [Decitabine] (partner 2 µM) | HARA | satisfied |
| Nc1ccn([C@@H]2O[C@H](CO)[C@@H](O)[C@@H]2O)c(=O)n1 [Cytarabine] + CS(=O)(=O)N1CCN(Cc2cc3nc(-c4cccc5[nH]ncc45)nc(N4CCOCC4)c3s2)CC1 [Pictilisib] (partner 1 µM) | HARA | satisfied |
| Nc1ccn([C@@H]2O[C@H](CO)[C@@H](O)[C@@H]2O)c(=O)n1 [Cytarabine] + Cc1cc(Nc2cc(N3CCN(C)CC3)nc(Sc3ccc(NC(=O)C4CC4)cc3)n2)n[nH]1 [Tozasertib] (partner 0.1 µM) | HARA | satisfied |

Exercise: For COc1cc2nccc(Oc3ccc(NC(=O)Nc4cc(C)on4)c(Cl)c3)c2cc1OC [Tivozanib] + C[C@@H](Oc1cc(-c2cnn(C3CCNCC3)c2)cnc1N)c1c(Cl)ccc(F)c1Cl [Crizotinib] (partner 1 µM) , is the recorded relative viability below the cut-off of 0.7?
Key: not satisfied

Exercise: relative viability strictly < 0.7 for this compound? COc1cc2nccc(Oc3ccc(NC(=O)Nc4cc(C)on4)c(Cl)c3)c2cc1OC [Tivozanib] + C[C@]1(O)C[C@@H](c2nc(-c3ccc4ccc(-c5ccccc5)nc4c3)c3c(N)nccn32)C1 [Linsitinib] (partner 1 µM)
Key: not satisfied

* * *

Test system: EMC-BAC-2
Test: relative viability (nuclei count vs DMSO), 5 days (fraction); higher = more cells survive
Conditions: first compound 0.1581 µM
Response field label: string, one of fulfilled (relative viability strictly below 0.3) or not fulfilled.

| Compound | Discrete Label |
| --- | --- |
| Nc1ccn([C@@H]2O[C@H](CO)[C@@H](O)[C@@H]2O)c(=O)n1 [Cytarabine] + CC1(C)CCC(c2ccc(Cl)cc2)=C(CN2CCN(c3ccc(C(=O)NS(=O)(=O)c4ccc(N[C@H](CCN5CCOCC5)CSc5ccccc5)c(S(=O)(=O)C(F)(F)F)c4)cc3)CC2)C1 [Navitoclax] (partner 0.5 µM) | fulfilled |
| Nc1ccn([C@@H]2O[C@H](CO)[C@@H](O)[C@@H]2O)c(=O)n1 [Cytarabine] + Cc1nc(Nc2ncc(C(=O)Nc3c(C)cccc3Cl)s2)cc(N2CCN(CCO)CC2)n1 [Dasatinib] (partner 0.075 µM) | fulfilled |
| COc1cc2nccc(Oc3ccc(NC(=O)Nc4cc(C)on4)c(Cl)c3)c2cc1OC [Tivozanib] + Cc1cc(Nc2cc(N3CCN(C)CC3)nc(Sc3ccc(NC(=O)C4CC4)cc3)n2)n[nH]1 [Tozasertib] (partner 0.1 µM) | not fulfilled |
| Nc1ccn([C@@H]2O[C@H](CO)[C@@H](O)[C@@H]2O)c(=O)n1 [Cytarabine] + O=C(c1cc(Cc2n[nH]c(=O)c3ccccc23)ccc1F)N1CCN(C(=O)C2CC2)CC1 [Olaparib] (partner 8 µM) | fulfilled |
| COc1cc2nccc(Oc3ccc(NC(=O)Nc4cc(C)on4)c(Cl)c3)c2cc1OC [Tivozanib] + CC(C)C[C@H](NC(=O)[C@H](Cc1ccccc1)NC(=O)c1cnccn1)B(O)O [Bortezomib] (partner 0.002 µM) | not fulfilled |
| COc1cc2nccc(Oc3ccc(NC(=O)Nc4cc(C)on4)c(Cl)c3)c2cc1OC [Tivozanib] + C[C@@H](Oc1cc(-c2cnn(C3CCNCC3)c2)cnc1N)c1c(Cl)ccc(F)c1Cl [Crizotinib] (partner 1 µM) | not fulfilled |
| COc1cc2nccc(Oc3ccc(NC(=O)Nc4cc(C)on4)c(Cl)c3)c2cc1OC [Tivozanib] + Nc1ncn([C@H]2C[C@H](O)[C@@H](CO)O2)c(=O)n1 [Decitabine] (partner 2 µM) | not fulfilled |
| COc1cc2nccc(Oc3ccc(NC(=O)Nc4cc(C)on4)c(Cl)c3)c2cc1OC [Tivozanib] + CC(=O)Nc1cccc(-n2c(=O)n(C3CC3)c(=O)c3c(Nc4ccc(I)cc4F)n(C)c(=O)c(C)c32)c1 [Trametinib] (partner 0.02 µM) | not fulfilled |
| Nc1ccn([C@@H]2O[C@H](CO)[C@@H](O)[C@@H]2O)c(=O)n1 [Cytarabine] + C[C@@H](Oc1cc(-c2cnn(C3CCNCC3)c2)cnc1N)c1c(Cl)ccc(F)c1Cl [Crizotinib] (partner 1 µM) | fulfilled |
| COc1cc2nccc(Oc3ccc(NC(=O)Nc4cc(C)on4)c(Cl)c3)c2cc1OC [Tivozanib] + NC(=O)Nc1cc(-c2cccc(F)c2)sc1C(=O)N[C@H]1CCCNC1 [AZD7762] (partner 0.2 µM) | not fulfilled |

Exercise: Regarding Nc1ccn([C@@H]2O[C@H](CO)[C@@H](O)[C@@H]2O)c(=O)n1 [Cytarabine] + Cc1nc(NC(=O)N2CCC[C@H]2C(N)=O)sc1-c1ccnc(C(C)(C)C(F)(F)F)c1 [Alpelisib] (partner 2 µM) , kindly confirm whether its relative viability is beneath 0.3.
Key: fulfilled

Exercise: Answer whether the compound Nc1ccn([C@@H]2O[C@H](CO)[C@@H](O)[C@@H]2O)c(=O)n1 [Cytarabine] + CS(=O)(=O)CCNCc1ccc(-c2ccc3ncnc(Nc4ccc(OCc5cccc(F)c5)c(Cl)c4)c3c2)o1 [Lapatinib] (partner 2 µM) has relative viability strictly less than 0.3
Key: fulfilled
